Recorded values, source patent US20260207572A1.

experiment: Phase 1 single-dose plasma pharmacokinetics in subjects with normal hepatic function, mild or moderate hepatic impairment; format: in vivo, human; conditions: human, plasma, po, 200 mg, Normal Hepatic Function; 16 h; 200 mg single oral dose; read-out: Plasma concentration, Median
value.kind: concentration at 16 h

{"smiles.repr": "N#CC1(c2ccc(NC(=O)c3cccnc3NCc3ccncc3)cc2)CCCC1", "reported.value": "49.7 ng/mL"}

###

test: Phase 1 single-dose plasma pharmacokinetics in subjects with normal hepatic function, mild or moderate hepatic impairment; assay type: in vivo, human; conditions: human, plasma, oral, 200 mg, Mild vs Normal: Mild hepatic impairment; paired analysis; read-out: AUC0-t, Geometric Least Squares Mean, Test
value.kind: AUC(0-t)

{"smiles.repr": "N#CC1(c2ccc(NC(=O)c3cccnc3NCc3ccncc3)cc2)CCCC1", "reported.value": "2080 ng·h/mL"}

###

assay: Phase 1 single-dose plasma pharmacokinetics in subjects with normal hepatic function, mild or moderate hepatic impairment; format: in vivo, human; settings: human, plasma, po, 200 mg, Moderate Hepatic Impairment; 200 mg single oral dose; read-out: Cmax, Median

{"compound": "N#CC1(c2ccc(NC(=O)c3cccnc3NCc3ccncc3)cc2)CCCC1 [Rivoceranib]", "uom": "ng/mL", "Cmax": 180}

###

test: Phase 1 single-dose plasma pharmacokinetics in subjects with normal hepatic function, mild or moderate hepatic impairment; format: in vivo, human; conditions: human, plasma, po, 200 mg, Normal Hepatic Function; 1 h; 200 mg single oral dose; read-out: Plasma concentration, Arithmetic Mean
value.kind: concentration at 1 h (ng/mL)

{"compound": "N#CC1(c2ccc(NC(=O)c3cccnc3NCc3ccncc3)cc2)CCCC1 [Rivoceranib]", "uom": "ng/mL", "reported.value": 136}

###

experiment: Phase 1 single-dose plasma pharmacokinetics in subjects with normal hepatic function, mild or moderate hepatic impairment; format: in vivo, human; conditions: human, plasma, po, 200 mg, Normal Hepatic Function; 8 h; 200 mg single oral dose; read-out: Plasma concentration, Geometric Mean

{"smiles.repr": "N#CC1(c2ccc(NC(=O)c3cccnc3NCc3ccncc3)cc2)CCCC1", "concentration at 8 h [ng/mL]": 89.5}

###

experiment: Phase 1 study: unbound plasma concentration and fraction unbound (protein binding); assay type: in vivo, human; conditions: human, plasma, po, 200 mg, Mild Hepatic Impairment; 24 h; 200 mg single oral dose; read-out: Unbound Concentration, Geometric Mean

{"smiles.repr": "N#CC1(c2ccc(NC(=O)c3cccnc3NCc3ccncc3)cc2)CCCC1", "concentration at 24 h (ng/mL)": 0.55}

###

test: Phase 1 single-dose plasma pharmacokinetics in subjects with normal hepatic function, mild or moderate hepatic impairment; assay type: in vivo, human; conditions: human, plasma, po, 200 mg, Moderate Hepatic Impairment; 12 h; 200 mg single oral dose; read-out: Plasma concentration, Arithmetic Mean
value.kind: concentration at 12 h (ng/mL)

{"smiles.repr": "N#CC1(c2ccc(NC(=O)c3cccnc3NCc3ccncc3)cc2)CCCC1", "value.kind": "concentration at 12 h", "uom": "ng/mL", "reported.value": 62.3}

###

test: Phase 1 single-dose plasma pharmacokinetics in subjects with normal hepatic function, mild or moderate hepatic impairment; assay type: in vivo, human; settings: human, plasma, po, 200 mg, Normal Hepatic Function; 36 h; 200 mg single oral dose; read-out: Plasma concentration, Geometric Mean

{"smiles.repr": "N#CC1(c2ccc(NC(=O)c3cccnc3NCc3ccncc3)cc2)CCCC1", "concentration at 36 h": "21.3 ng/mL"}

###

test: Phase 1 single-dose plasma pharmacokinetics in subjects with normal hepatic function, mild or moderate hepatic impairment; type: in vivo, human; settings: human, plasma, po, 200 mg, Mild Hepatic Impairment; 200 mg single oral dose; read-out: AUC0-t, Median

{"smiles.repr": "N#CC1(c2ccc(NC(=O)c3cccnc3NCc3ccncc3)cc2)CCCC1", "AUC(0-t) [ng·h/mL]": 1940}

###

tested on: plasma protein; assay: Phase 1 study: unbound plasma concentration and fraction unbound (protein binding); format: in vivo, human; conditions: human, plasma, po, 200 mg, Normal Hepatic Function; 4 h; 200 mg single oral dose; read-out: Fraction Unbound, Arithmetic Mean
value.kind: fraction unbound at 4 h

{"smiles.repr": "N#CC1(c2ccc(NC(=O)c3cccnc3NCc3ccncc3)cc2)CCCC1", "value.kind": "fraction unbound at 4 h", "reported.value": 0.0265}

###

Assay: Phase 1 single-dose plasma pharmacokinetics in subjects with normal hepatic function, mild or moderate hepatic impairment
Format: in vivo, human
Settings: human, plasma, po, 200 mg, Moderate Hepatic Impairment; 12 h; 200 mg single oral dose; read-out: Plasma concentration, Median
From the text: Patients: 27 subjects were enrolled within the following groups based on their Child-Pugh (CP) classification score: • Group 1: Matched-control healthy subjects with normal hepatic function; • Group 2: Subjects with mild hepatic impairment (CP Class A, score of 5 or 6); • Group 3: Subjects with moderate hepatic impairment (CP Class B, score of 7 to 9). A parallel design strategy was adopted for the hepatic impairment groups. […]
value.kind: concentration at 12 h (ng/mL)

{"smiles.repr": "N#CC1(c2ccc(NC(=O)c3cccnc3NCc3ccncc3)cc2)CCCC1", "uom": "ng/mL", "reported.value": 54.2}

###

Assay: Phase 1 single-dose plasma pharmacokinetics in subjects with normal hepatic function, mild or moderate hepatic impairment
Type: in vivo, human
Settings: human, plasma, po, 200 mg, Mild Hepatic Impairment; 200 mg single oral dose; read-out: Cmax, Median
Source text: Patients: 27 subjects were enrolled within the following groups based on their Child-Pugh (CP) classification score: • Group 1: Matched-control healthy subjects with normal hepatic function; • Group 2: Subjects with mild hepatic impairment (CP Class A, score of 5 or 6); • Group 3: Subjects with moderate hepatic impairment (CP Class B, score of 7 to 9). A parallel design strategy was adopted for the hepatic impairment groups. […]

{"smiles.repr": "N#CC1(c2ccc(NC(=O)c3cccnc3NCc3ccncc3)cc2)CCCC1", "Cmax [ng/mL]": 202}

###

experiment: Phase 1 single-dose plasma pharmacokinetics in subjects with normal hepatic function, mild or moderate hepatic impairment; format: in vivo, human; details: human, plasma, po, 200 mg, Mild Hepatic Impairment; 48 h; 200 mg single oral dose; read-out: Plasma concentration, Geometric Mean

{"smiles.repr": "N#CC1(c2ccc(NC(=O)c3cccnc3NCc3ccncc3)cc2)CCCC1", "concentration at 48 h": "9.97 ng/mL"}

###

Test: Phase 1 single-dose plasma pharmacokinetics in subjects with normal hepatic function, mild or moderate hepatic impairment
Type: in vivo, human
Settings: human, plasma, po, 200 mg, Moderate Hepatic Impairment; 200 mg single oral dose; read-out: AUC0-t, Geometric Mean
From the text: Patients: 27 subjects were enrolled within the following groups based on their Child-Pugh (CP) classification score: • Group 1: Matched-control healthy subjects with normal hepatic function; • Group 2: Subjects with mild hepatic impairment (CP Class A, score of 5 or 6); • Group 3: Subjects with moderate hepatic impairment (CP Class B, score of 7 to 9). A parallel design strategy was adopted for the hepatic impairment groups. […]
value.kind: AUC(0-t) (ng·h/mL)

{"smiles.repr": "N#CC1(c2ccc(NC(=O)c3cccnc3NCc3ccncc3)cc2)CCCC1", "reported.value": 2380}

###

assay: Phase 1 single-dose plasma pharmacokinetics in subjects with normal hepatic function, mild or moderate hepatic impairment; format: in vivo, human; conditions: human, plasma, oral, 200 mg, Moderate vs Normal: matched Normal hepatic function; paired analysis; read-out: AUC0-∞, Geometric Least Squares Mean, Reference

{"smiles.repr": "N#CC1(c2ccc(NC(=O)c3cccnc3NCc3ccncc3)cc2)CCCC1", "uom": "ng·h/mL", "AUC(0-inf)": 2980}

###

experiment: Phase 1 single-dose plasma pharmacokinetics in subjects with normal hepatic function, mild or moderate hepatic impairment; format: in vivo, human; conditions: human, plasma, po, 200 mg, Moderate Hepatic Impairment; 36 h; 200 mg single oral dose; read-out: Plasma concentration, Arithmetic Mean
value.kind: concentration at 36 h

{"smiles.repr": "N#CC1(c2ccc(NC(=O)c3cccnc3NCc3ccncc3)cc2)CCCC1", "reported.value": "24 ng/mL"}

###

experiment: Phase 1 study: unbound plasma concentration and fraction unbound (protein binding); format: in vivo, human; conditions: human, plasma, po, 200 mg, Normal Hepatic Function; 4 h; 200 mg single oral dose; read-out: Unbound Concentration, Geometric Mean

{"smiles.repr": "N#CC1(c2ccc(NC(=O)c3cccnc3NCc3ccncc3)cc2)CCCC1", "concentration at 4 h, ng/mL": 3.62}

###

experiment: Phase 1 single-dose plasma pharmacokinetics in subjects with normal hepatic function, mild or moderate hepatic impairment; assay type: in vivo, human; conditions: human, plasma, po, 200 mg, Normal Hepatic Function; 6 h; 200 mg single oral dose; read-out: Plasma concentration, Median

{"smiles.repr": "N#CC1(c2ccc(NC(=O)c3cccnc3NCc3ccncc3)cc2)CCCC1", "uom": "ng/mL", "concentration at 6 h": 106}

###

assay: Phase 1 single-dose plasma pharmacokinetics in subjects with normal hepatic function, mild or moderate hepatic impairment; format: in vivo, human; details: human, plasma, po, 200 mg, Moderate Hepatic Impairment; 6 h; 200 mg single oral dose; read-out: Plasma concentration, Geometric Mean

{"smiles.repr": "N#CC1(c2ccc(NC(=O)c3cccnc3NCc3ccncc3)cc2)CCCC1", "concentration at 6 h / ng/mL": 96.8}
